B1: tRNA (parent)
chain: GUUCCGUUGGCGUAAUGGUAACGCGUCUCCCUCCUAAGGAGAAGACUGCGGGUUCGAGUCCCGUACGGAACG

variants of: B1; assay: yeast fitness relative to wild type (ratio to wild type); higher = fitter; tRNA-Arg(CCU), competitive growth, 37 C, YPD
Fewer inactive variants are shown than the library holds.
metric-name: yeast fitness
Just the number, please, no unit attached.

Here are 3 variants together with their reported answers.
| mutation-name | metric-name | number |
| --- | --- | --- |
| C4A C22G A40C G67A | yeast fitness | 0.61 |
| U2G U19G | yeast fitness | 1.24 |
| A37U G68C | yeast fitness | 0.837 |

Qu. If you can, please state the reported yeast fitness value of C34A A45G G63C .
Ans. 0.676

Qu. Looking for the measured yeast fitness of U32C A40U , can you help?
Ans. 1.01

Qu. Fill in the blank: the reported yeast fitness of C22U U64C C66U is ____.
Ans. 0.7

Qu. So what's the measured yeast fitness for this one? U2C G12A C24A U28A A42C U47G C49G
Ans. 0.582

Qu. Item A14G A15U U53C A69U has what recorded yeast fitness?
Ans. 0.599

Qu. # lookup: yeast fitness of G68C A70U
Ans. 0.899

Qu. Look at this variant and give its reported yeast fitness. U3G A69C
Ans. 0.867

FYI, the data here is from the RNAGym collection of RNA variant scans (doi:10.1126/science.aae0568).
